Biological target: Histone acetyltransferase p300/Hypoxia-inducible factor 1-alpha (Homo sapiens, UniProt Q09472+Q16665)
Sequence (Q09472 whole entry, the tested form may be a part): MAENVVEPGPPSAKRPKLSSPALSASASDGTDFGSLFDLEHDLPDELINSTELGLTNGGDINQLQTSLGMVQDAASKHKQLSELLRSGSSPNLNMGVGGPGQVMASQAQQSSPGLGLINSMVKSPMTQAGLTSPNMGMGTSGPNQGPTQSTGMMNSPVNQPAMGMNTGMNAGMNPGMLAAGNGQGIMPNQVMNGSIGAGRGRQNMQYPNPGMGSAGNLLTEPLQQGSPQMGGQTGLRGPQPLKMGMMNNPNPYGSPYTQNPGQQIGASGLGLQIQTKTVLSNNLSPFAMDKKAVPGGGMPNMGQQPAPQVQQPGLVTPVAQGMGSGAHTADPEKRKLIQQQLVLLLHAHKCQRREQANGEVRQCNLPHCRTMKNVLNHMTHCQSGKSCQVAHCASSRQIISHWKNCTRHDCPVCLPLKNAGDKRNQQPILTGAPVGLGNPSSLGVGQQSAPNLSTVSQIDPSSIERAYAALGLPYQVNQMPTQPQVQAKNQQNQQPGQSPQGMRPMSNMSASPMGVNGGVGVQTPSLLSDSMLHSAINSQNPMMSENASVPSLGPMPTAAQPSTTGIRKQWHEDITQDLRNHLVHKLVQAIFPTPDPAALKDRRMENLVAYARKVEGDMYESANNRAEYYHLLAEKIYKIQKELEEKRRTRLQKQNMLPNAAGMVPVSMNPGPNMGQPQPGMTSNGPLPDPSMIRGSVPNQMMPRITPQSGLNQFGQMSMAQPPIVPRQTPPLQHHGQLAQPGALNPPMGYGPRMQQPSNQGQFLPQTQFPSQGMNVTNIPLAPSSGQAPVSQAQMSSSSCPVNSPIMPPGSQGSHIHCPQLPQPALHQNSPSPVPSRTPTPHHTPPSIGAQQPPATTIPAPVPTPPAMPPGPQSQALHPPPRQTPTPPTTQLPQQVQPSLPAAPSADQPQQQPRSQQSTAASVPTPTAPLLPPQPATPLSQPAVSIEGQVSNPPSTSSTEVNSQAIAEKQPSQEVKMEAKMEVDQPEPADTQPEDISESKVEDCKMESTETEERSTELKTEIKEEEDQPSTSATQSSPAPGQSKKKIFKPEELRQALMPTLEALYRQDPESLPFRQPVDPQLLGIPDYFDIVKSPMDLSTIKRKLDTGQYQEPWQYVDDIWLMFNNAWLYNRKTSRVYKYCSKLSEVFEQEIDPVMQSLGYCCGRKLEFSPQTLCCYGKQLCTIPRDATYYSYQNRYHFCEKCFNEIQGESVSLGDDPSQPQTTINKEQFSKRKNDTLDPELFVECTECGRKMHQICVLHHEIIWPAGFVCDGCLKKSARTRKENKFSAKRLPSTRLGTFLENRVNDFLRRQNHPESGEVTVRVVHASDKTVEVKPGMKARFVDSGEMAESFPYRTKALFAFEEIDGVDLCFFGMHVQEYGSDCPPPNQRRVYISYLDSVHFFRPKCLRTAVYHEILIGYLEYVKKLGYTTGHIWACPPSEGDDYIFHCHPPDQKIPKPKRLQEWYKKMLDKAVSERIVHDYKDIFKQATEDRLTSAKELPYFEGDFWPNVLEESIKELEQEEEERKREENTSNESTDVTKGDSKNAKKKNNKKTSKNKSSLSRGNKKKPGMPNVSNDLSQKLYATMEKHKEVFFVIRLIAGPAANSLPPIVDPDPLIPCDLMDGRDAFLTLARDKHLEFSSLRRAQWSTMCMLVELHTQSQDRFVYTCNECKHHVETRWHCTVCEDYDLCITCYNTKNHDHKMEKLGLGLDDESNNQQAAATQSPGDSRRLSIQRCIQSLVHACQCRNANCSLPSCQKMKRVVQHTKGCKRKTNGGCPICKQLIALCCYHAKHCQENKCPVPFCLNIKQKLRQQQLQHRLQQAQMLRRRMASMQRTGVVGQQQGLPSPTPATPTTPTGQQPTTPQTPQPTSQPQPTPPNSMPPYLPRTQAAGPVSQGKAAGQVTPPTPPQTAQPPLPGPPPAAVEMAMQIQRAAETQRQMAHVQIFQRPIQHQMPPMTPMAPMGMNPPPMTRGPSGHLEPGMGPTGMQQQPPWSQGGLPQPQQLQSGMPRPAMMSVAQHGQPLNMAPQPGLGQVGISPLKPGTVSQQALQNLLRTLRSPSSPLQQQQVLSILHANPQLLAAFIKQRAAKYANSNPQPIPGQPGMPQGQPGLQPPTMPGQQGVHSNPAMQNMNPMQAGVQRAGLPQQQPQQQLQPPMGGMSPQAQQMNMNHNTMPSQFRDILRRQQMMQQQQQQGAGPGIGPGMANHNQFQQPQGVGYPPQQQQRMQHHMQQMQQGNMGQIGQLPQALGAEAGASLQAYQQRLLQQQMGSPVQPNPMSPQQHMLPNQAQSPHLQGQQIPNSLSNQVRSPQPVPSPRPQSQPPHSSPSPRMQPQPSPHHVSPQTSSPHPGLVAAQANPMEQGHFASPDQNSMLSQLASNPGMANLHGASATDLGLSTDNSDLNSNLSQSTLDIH
Sequence (Q16665 whole entry, the tested form may be a part): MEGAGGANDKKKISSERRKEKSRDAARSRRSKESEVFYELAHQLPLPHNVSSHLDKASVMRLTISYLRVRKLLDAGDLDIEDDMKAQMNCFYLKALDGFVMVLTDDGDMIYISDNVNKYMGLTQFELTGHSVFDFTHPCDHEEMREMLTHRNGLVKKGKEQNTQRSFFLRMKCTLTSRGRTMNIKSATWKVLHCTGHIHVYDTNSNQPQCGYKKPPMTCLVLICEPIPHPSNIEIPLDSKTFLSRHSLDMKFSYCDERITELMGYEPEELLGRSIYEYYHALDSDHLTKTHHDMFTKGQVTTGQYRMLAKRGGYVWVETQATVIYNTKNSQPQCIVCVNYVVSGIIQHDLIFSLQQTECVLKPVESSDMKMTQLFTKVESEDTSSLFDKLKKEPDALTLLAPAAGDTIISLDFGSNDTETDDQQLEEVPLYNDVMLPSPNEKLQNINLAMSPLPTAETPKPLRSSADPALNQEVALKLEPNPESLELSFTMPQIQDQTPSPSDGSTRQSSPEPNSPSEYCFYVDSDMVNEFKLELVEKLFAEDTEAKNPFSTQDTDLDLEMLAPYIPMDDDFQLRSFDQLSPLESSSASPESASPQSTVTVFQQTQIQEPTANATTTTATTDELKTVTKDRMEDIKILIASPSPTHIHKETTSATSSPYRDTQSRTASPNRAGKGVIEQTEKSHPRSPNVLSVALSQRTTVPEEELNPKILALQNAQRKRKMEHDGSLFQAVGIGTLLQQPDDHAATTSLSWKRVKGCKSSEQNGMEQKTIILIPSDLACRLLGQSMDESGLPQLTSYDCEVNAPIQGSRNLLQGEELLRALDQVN
Test: Inhibition of HIF-1alpha(unknown origin)/human p300 CH1 domain (323 to 423 residues) PPI extracted from Escherichia coli incubated for 1 hr by SpectraMax iD5 MultiMode microplate reader analysis
Format: protein-complex assay
EXPERIMENTAL_ENDPOINT: IC50 (nM)
Numbers only, in nM.

The reported IC50 of the compound CC(C)C[C@@H]1NCCN([C@@H](CC(C)C)C(=O)N2CCN([C@@H](CCC(N)=O)C(N)=O)C(=O)[C@@H]2C)C1=O was 51.3

---
The reported IC50 of the compound COC1=C(N)C(=O)c2nc(-c3nc(C(=O)O)c(C)c(-c4ccc(OC)c(OC)c4O)c3N)ccc2C1=O was 1380

====

Biological target: Histone acetyltransferase p300/Hypoxia-inducible factor 1-alpha (Homo sapiens, UniProt Q09472+Q16665)
Assay: Inhibition of HIF-1alpha/p300 PPI (unknown origin)
Format: protein-complex assay
EXPERIMENTAL_ENDPOINT: pIC50
Answers are plain numbers, as −log10 of the molar value.

The reported pIC50 of the compound COC(=O)c1ccc(O)c(NC(=O)COc2ccc(C34CC5CC(CC(C5)C3)C4)cc2)c1 was 5.36
